protocolDetails: Pharmacokinetics: plasma and brain concentration after IP injection
Assay type: in vivo, mouse
conditionLabel: female, CD-1, mouse; mice, IP 15 mg/kg, 24 h, plasma, individual animals; read-out: Plasma concentration, individual mice 1-3
Positions of bridges follow the written chain, without caps; N, C: chain ends. Non-standard residues stand in square brackets, D forms with d. Residues, ends and D or L forms follow the SMILES beside them. Nle = CCCC[C@H](N)C(=O)O
endpoint: level at 24 h (ng/mL)
Write the answer as a number in ng/mL, unit excluded.

Prompt: Request the reported level at 24 h associated with CCCC[C@H](NC(=O)[C@H](CCCNC(=N)N)NC(C)=O)C(=O)N[C@H]1CSSC[C@@H](C(N)=O)NC(=O)[C@H](Cc2c[nH]c3ccccc23)NC(=O)[C@H](CCCNC(=N)N)NC(=O)[C@@H](Cc2ccccc2)NC(=O)[C@H](Cc2c[nH]cn2)NC1=O [CTX-1227, Arg-Nle-cyclo(Cys-His-D-Phe-Arg-Trp-Cys)] (Ac-R[Nle]CH[dF]RWC-NH2; disulfide 3-8 (inferred))
Response: 15
